test system: P388 leukemia ip, CD2F1 mice, survival T/C; test: NCI In Vivo Anticancer Drug Screen. Data for tumor model P388 Leukemia (intraperitoneal) in CD2F1 (CDF1) mice; conditions: endpoint: median survival time; dose: 120.0 mg/kg/injection; schedule: Q01DX005 (ip); vehicle: saline; higher = longer survival
Inconclusive results and toxic doses are left out.
T/C: recorded values

- query smiles: "O=C(O)CNC1CCCCC1"
  test system: "P388 leukemia ip, CD2F1 mice, survival T/C"
  experimental endpoint: "T/C"
  observed measurement: "92 % of control"
- query smiles: "CC(=O)NCCCCCCCNC(C)=O"
  test system: "P388 leukemia ip, CD2F1 mice, survival T/C"
  experimental endpoint: "T/C"
  observed measurement: "107 % of control"
- query smiles: "CC(C)(C)c1cc(-c2cc(C(C)(C)C)nc(N)n2)nc(N)n1"
  test system: "P388 leukemia ip, CD2F1 mice, survival T/C"
  experimental endpoint: "T/C"
  observed measurement: "105 % of control"
- query smiles: "O=c1nc2n(CCO)c3ccccc3cc-2c(=O)[nH]1"
  test system: "P388 leukemia ip, CD2F1 mice, survival T/C"
  experimental endpoint: "T/C"
  observed measurement: "95 % of control"
- query smiles: "O=C/C=C/N=c1ccn(O)cc1"
  test system: "P388 leukemia ip, CD2F1 mice, survival T/C"
  experimental endpoint: "T/C"
  observed measurement: "100 % of control"
- query smiles: "O=[N+]([O-])c1cnc(Sc2ncc([N+](=O)[O-])cn2)nc1"
  test system: "P388 leukemia ip, CD2F1 mice, survival T/C"
  experimental endpoint: "T/C"
  observed measurement: "102 % of control"
- query smiles: "OCc1cnccc1Cl"
  test system: "P388 leukemia ip, CD2F1 mice, survival T/C"
  experimental endpoint: "T/C"
  observed measurement: "100 % of control"

// switching to the query molecule
# input Note down T/C recorded for CCNC(=O)OCCN(CCOC(=O)NCC)CCc1ccccc1
# output 117 % of control
